src = patent US9981972B2

ASSAY NOTES: Solubility in media (DMEM+10% FBS)
Format: physicochemical
EXPERIMENTAL CONTEXT: plasma or biological fluid, kinetic from dmso stock, complete media (DMEM+10% FBS), 22° C., read-out: solubility in DMEM containing 10% serum
ENDPOINT NAME: solubility at 18 h
Entry format: amount then unit.

Data request: What measured solubility at 18 h goes with O=C(ON1C(=O)C2CN(C(=O)N3CCOCC3)CCN2C1=O)N1CCC(CCc2ccc(Cl)cc2)CC1 (stereo not shown) ?
Data returned: 46 µM

###

STUDY TARGET: PPT1 (Homo sapiens)
Sequence (P50897 28-306): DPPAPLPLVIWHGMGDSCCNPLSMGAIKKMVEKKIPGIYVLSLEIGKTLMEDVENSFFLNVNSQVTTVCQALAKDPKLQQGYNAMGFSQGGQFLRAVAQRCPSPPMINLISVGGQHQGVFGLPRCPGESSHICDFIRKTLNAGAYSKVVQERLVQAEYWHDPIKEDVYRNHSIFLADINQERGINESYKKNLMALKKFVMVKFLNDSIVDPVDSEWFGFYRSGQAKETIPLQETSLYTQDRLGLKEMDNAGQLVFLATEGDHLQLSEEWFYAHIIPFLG
ASSAY NOTES: In situ inhibition of hPPT1 in transfected HEK293T cells, competitive ABPP with Compound 39 probe
Assay type: cell-based
Design: expressed in transfected cells; host or cells: HEK293T
EXPERIMENTAL CONTEXT: hPPT1-transfected HEK293T cells, in situ; read-out: hPPT1 (in situ), IC50
ENDPOINT NAME: IC50 (nM)
Your answer is read as nM, so omit the unit and give the number.

O=C(ON1C(=O)C2CN(C(=O)N3CCOCC3)CCN2C1=O)N1CCC(CCc2ccc(Cl)cc2)CC1 (centres unmarked) : 500

Note: attention shifts to another entry.
Data request: Item O=C(ON1C(=O)C2CN(Cc3ccc(Oc4ccccc4)cc3)CCN2C1=O)N1CCOCC1 (centres unmarked) with PPT1 (Homo sapiens) - IC50?
Data returned: 3900
